src = patent US20230025129A1

# experimental.system: T1, human MTP-2 expressed on HEK293 cells (human, UniProt Q8IU80 1-811)
# T1 sequence: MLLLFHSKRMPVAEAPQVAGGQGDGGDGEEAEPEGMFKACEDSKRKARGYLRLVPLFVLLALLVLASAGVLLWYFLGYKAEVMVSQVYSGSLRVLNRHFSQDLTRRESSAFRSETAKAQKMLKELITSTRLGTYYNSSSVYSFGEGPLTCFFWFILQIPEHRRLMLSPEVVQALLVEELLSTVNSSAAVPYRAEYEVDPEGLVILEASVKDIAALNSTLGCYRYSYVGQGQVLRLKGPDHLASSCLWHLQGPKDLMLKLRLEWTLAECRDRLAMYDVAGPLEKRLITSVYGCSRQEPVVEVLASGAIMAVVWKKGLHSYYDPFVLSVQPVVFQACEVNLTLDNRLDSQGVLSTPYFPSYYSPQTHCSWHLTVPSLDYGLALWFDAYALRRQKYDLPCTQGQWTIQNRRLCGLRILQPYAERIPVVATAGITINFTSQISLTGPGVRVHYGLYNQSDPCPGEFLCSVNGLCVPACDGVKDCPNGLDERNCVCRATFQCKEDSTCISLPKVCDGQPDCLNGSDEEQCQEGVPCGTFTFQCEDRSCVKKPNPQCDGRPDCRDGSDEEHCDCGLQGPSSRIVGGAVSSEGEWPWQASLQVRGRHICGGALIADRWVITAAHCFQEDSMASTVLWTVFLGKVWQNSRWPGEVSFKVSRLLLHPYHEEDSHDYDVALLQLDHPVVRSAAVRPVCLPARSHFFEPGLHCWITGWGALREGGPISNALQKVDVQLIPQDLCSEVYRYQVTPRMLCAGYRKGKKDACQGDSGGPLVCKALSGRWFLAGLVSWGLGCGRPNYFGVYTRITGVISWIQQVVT
# test.name: cell-based or functional assay
Label scheme for Inhibition enzymatic activity human MTP2 on cells (IC50): lower than 0.6 nM is False, 0.6 nM and above is True.

Determine whether measured Inhibition enzymatic activity human MTP2 on cells (IC50) meets or exceeds 0.6 nM for NORI-032 (antibody, human IgG4 S228P, lambda, V domains shown) VH: QVQLVQSGAEVRKPGAAVKVSCKASGYTFSSFGITWIRQAPGQGLEWMGWISAYNGISNSAQKVQGRVTMTTDTSTSTAYMELRSLRSDDSAVYYCARDRANRDALDVWGQGTKVTVSL VL: SHELTQPPSMSVSPGQTASITCSGDELGDRYACWYQQKPGQSPVLVIYQDTKRPSGIPERFSGSISGNTATLTISGTQAMDEADYYCQAWDSSTVVFGGGTKLTVLG
True

Determine whether measured Inhibition enzymatic activity human MTP2 on cells (IC50) meets or exceeds 0.6 nM for NORI-033 (antibody, human IgG4 S228P, lambda, V domains shown) VH: QLQLQESGPGLVKPSETLSLTCTVSGDSISSHTYWWGWIRQPPGKGLEWIGSMFYSGSTYYNPSLKSRVVISVDTSRNQFSLKVRSVTAADTAVFYCARHNNWGMENYFDDWGQGTLVTVSS VL: SYALTQPPSVSVSPGQTARITCSADALPDQYGYWYQQKPGQAPVLVIYKDSERPSGIPERFSGSSSGTTVTLTISGVQAEDEADYYCQSADSSGSYVVFGGGTKLTVLG
False

Determine whether measured Inhibition enzymatic activity human MTP2 on cells (IC50) meets or exceeds 0.6 nM for NORI-013 (antibody, human IgG4 S228P, lambda, V domains shown, human IgG4PE, lambda) VH: EVQLVESGGGLIQAGRSLRLSCAASGFTFDEHVIYWVRQIPGKGLEWISSISWKSDIIAYADSVKGRFTISRDNAKNALYLQMNSLRAEDTALYYCAREKDGDFYYYYFAMDVWGQGTTVTVSS VL: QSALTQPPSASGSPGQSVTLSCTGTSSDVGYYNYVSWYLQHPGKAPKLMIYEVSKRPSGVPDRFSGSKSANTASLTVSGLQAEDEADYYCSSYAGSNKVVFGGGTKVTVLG
True

Determine whether measured Inhibition enzymatic activity human MTP2 on cells (IC50) meets or exceeds 0.6 nM for NORI-028 (antibody, human IgG4 S228P, lambda, V domains shown) VH: EVQLVESGGAVVRPGGSLRLSCAISGFILDDYGMNWVRQGPGKGLEWVAGISWNGDSTRYADSVKGRFTISRDNAQNSLYLQMNSLRAEDTALYFCAREYSGDFYYYYYGMDVWGQGTTVTVSS VL: QSALTQPPSASGSPGQSVTISCTGTSSDVGFYNFVSWYQHHPGKAPKLMIYEVSKRPSGVPDRFSGSKSANTASLTVSGLQAEDEADYYCSSYAGSNNLVFGGGTKLTVLG
True
